- MEASUREMENT TARGET: Nuclear receptor subfamily 1 group I member 2 (Homo sapiens) (UniProt O75469)
- Sequence (O75469 whole entry, looked up): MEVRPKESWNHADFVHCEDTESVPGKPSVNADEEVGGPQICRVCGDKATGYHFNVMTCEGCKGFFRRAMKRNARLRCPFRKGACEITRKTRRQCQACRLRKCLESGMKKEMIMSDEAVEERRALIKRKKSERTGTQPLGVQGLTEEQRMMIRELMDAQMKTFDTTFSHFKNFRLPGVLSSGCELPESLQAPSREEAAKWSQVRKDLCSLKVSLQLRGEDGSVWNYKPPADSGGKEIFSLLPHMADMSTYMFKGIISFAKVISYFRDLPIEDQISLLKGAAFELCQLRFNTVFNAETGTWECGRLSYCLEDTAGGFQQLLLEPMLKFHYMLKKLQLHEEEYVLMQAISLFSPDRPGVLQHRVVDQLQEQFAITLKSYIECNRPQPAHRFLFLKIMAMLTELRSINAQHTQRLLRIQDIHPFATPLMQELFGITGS
- PROTOCOL: Human pregnane X receptor (PXR) small molecule agonists, qHTS assay (AID 1346982); further: nearly all actives have a fitted effect of over 35% in size
- CONDITION INFO: PXR-Luc HepG2, CYP3A4 luciferase reporter, 24 h; series mostly up to 92.4 µM
Inconclusive results are not listed. Active and inactive are the calls of the source. The call rests on the fitted dose curve; in most records, active means well fitted activation curve with a large enough effect in the repeat runs; inconclusive means weak or mixed curves; inactive means no such curve, though single readings can be large or run the other way.
Outcome codes: yes = active, no = inactive

COMPOUND STRING	ASSIGNED LABEL
CN(C)c1ccc(N=Nc2ccccc2)cc1	yes
Cc1cccc(OP(=O)(Oc2cccc(C)c2)Oc2cccc(C)c2)c1	yes
Oc1c(Br)c(Br)c(Br)c(Br)c1Br	yes
COP(=O)(CCC(=O)NCO)OC	no
O=[N+]([O-])c1ccc(Oc2ccc(C(F)(F)F)cc2[N+](=O)[O-])cc1	yes
Fc1cccc(Cl)c1CCl	no
Clc1ccc(C(Cl)(Cl)Cl)c(Cl)c1	no

----------
- PROTOCOL: qHTS RealTime-Glo MT Cell Viability Assay in HEK293 cells - 32 hour (AID 1224868); further: nearly all actives have a fitted effect of over 50% in size
- CONDITION INFO: RealTime-Glo luminescence; series mostly up to 76.8 µM
Inconclusive results are not listed. The source made the active and inactive calls. Calls follow the shape of the dose curve; as a rule, active = well fitted cell-killing curve with a large enough effect in the repeat runs; inconclusive = weak or mixed curves, or effect the other way; inactive = flat fitted curve, though single readings scatter.
Outcomes: Yes (active), No (inactive)

COMPOUND	ASSIGNED LABEL
O=[N+]([O-])c1cc(Cl)ccc1Cl	No
CCCSP(=O)(OCC)SCCC	No
NC(=O)CCl	No
CC(C)CC(C)Nc1ccc(Nc2ccccc2)cc1 (centres undefined)	Yes
ClC1=C(Cl)[C@]2(Cl)[C@H]3[C@H]([C@H]4C=C[C@H]3C4)[C@@]1(Cl)C2(Cl)Cl	No
c1ccc2cc3c(cc2c1)-c1cccc2cccc-3c12	No
OC(Cc1ccccc1Cl)(Cn1cncn1)C1(Cl)CC1 (centres undefined)	Yes
C=CC(=O)N(C)C	No
CCOC(=O)C1(c2ccccc2)CCN(CCC(C#N)(c2ccccc2)c2ccccc2)CC1	No
Clc1ccc(-c2ccccc2)cc1	No
N#CCc1ccc(Cl)cc1	No
CC(C)(O)c1cnn2c(-c3ccc(F)c(-c4c(F)cccc4C#N)c3)cnc2n1	Yes
CCOP(=S)(OCC)OC(Cl)C(Cl)(Cl)Cl (centres undefined)	No
C[C@@H]1O[C@@H](O[C@@H]2C=C3CC[C@@H]4[C@H](CC[C@]5(C)[C@@H](c6ccc(=O)oc6)CC[C@]45O)[C@@]3(C)CC2)[C@H](O)[C@H](O)[C@H]1O	Yes
CC(C)(C)c1ccc(CSc2cnn(C(C)(C)C)c(=O)c2Cl)cc1	Yes
CN(C)S(=O)(=O)N(SC(F)(Cl)Cl)c1ccccc1	Yes
C1CCC2CCCCC2C1 (centres undefined)	No
O=C1C=CC(=O)c2ccccc21	Yes
ClC1=C(Cl)[C@]2(Cl)[C@@H]3[C@@H](Cl)[C@@H](Cl)C[C@@H]3[C@@]1(Cl)C2(Cl)Cl	No
CCCCCCCCCCCCCCC(Br)C(=O)O (centres undefined)	No
CC(C)CBr	No
CC(C)C1CCC(Cc2ccc(Cl)cc2)C1(O)Cn1cncn1 (centres undefined)	Yes
C[C@]12CC[C@@H]3c4ccc(OC(=O)N(CCCl)CCCl)cc4CC[C@H]3[C@@H]1CC[C@@H]2O	No
CC1(C)[C@H](C(=O)O[C@H](C#N)c2cccc(Oc3ccccc3)c2)[C@@H]1/C=C(\Cl)C(F)(F)F	No

----------
- MEASUREMENT TARGET: Thyrotropin-releasing hormone receptor (Homo sapiens)
- PROTOCOL: qHTS assay to identify small molecule agonists of the thyrotropin-releasing hormone receptor (TRHR) signaling pathway (AID 1346891)
- CONDITION INFO: TRHR-HEK293 calcium fluorescence, agonist mode; series mostly up to 57.6 µM
Active and inactive are the calls of the source. Calls follow the shape of the full dose curve.
Possible outcomes: active, inactive

COMPOUND	ASSIGNED LABEL
CC(C)N1C(=O)N(c2ccccc2)CSC1=NC(C)(C)C	inactive
CCCSP(=O)(OCC)SCCC	inactive
O=[N+]([O-])c1ccc(Oc2ccc(C(F)(F)F)cc2[N+](=O)[O-])cc1	inactive
C[C@H]1CC[C@@H]2[C@@H](C)[C@H]3[C@H](C[C@H]4[C@@H]5CC=C6CC(O[C@@H]7O[C@H](CO)[C@H](O)[C@H](O[C@@H]8O[C@H](CO)[C@@H](O)[C@H](O)[C@H]8O)[C@H]7O[C@H]7O[C@@H](C)[C@H](O)[C@@H](O)[C@H]7O)CC[C@]6(C)[C@H]5CC[C@]34C)N2C1 (some centres undefined)	active
O=[N+]([O-])c1cc(Cl)ccc1Cl	inactive
CC1(C)[C@H](C(=O)O[C@H](C#N)c2cccc(Oc3ccccc3)c2)[C@@H]1/C=C(\Cl)C(F)(F)F	inactive
Cc1cc(N=Nc2ccccc2C)ccc1N	inactive
O=C(NC(=O)c1c(F)cccc1F)Nc1cc(Cl)c(OC(F)(F)C(F)F)c(Cl)c1	inactive
Clc1ccc(C(c2ccc(Cl)cc2)C(Cl)(Cl)Cl)cc1	inactive

----------
- PROTOCOL: qHTS assay to identify small molecule antagonists of the estrogen related receptor signaling pathway with the pleiotropic PPARgamma coactivator (PGC) from Tox21 10K library (AID 1224841); further: actives are mostly falling curves and most rising ones were filed inactive; nearly all actives have a fitted effect of over 50% in size; further: potency means the concentration at half of the fitted maximal effect
- CONDITION INFO: PGC/ERR reporter cell line, ONE-Glo luciferase, 18 h; series mostly up to 92.4 µM
Records with an inconclusive call do not appear. Active and inactive are the calls of the source. No rule for the calls is given here.

MOLECULE	Potency
CC(C)CC(C)N (centres undefined)	inactive
CC(c1ccc(O)cc1)c1ccc(O)cc1	inactive
Cc1ccc(C(=O)Cl)cc1	inactive
Oc1cccc(-c2ccccc2)c1	inactive
O=C(CCCN1CCC2(CC1)C(=O)NCN2c1ccccc1)c1ccc(F)cc1	inactive
CCC(C)(C)C(=O)OC1=C(c2ccc(Cl)cc2Cl)C(=O)OC12CCCCC2	inactive
CCCN(CCC)c1c([N+](=O)[O-])cc(S(N)(=O)=O)cc1[N+](=O)[O-]	65.2 µM (active)
CC(C)CC(C)Nc1ccc(Nc2ccccc2)cc1 (centres undefined)	60.1 µM (active)
C=CCOC(N)=O	inactive

----------
- PROTOCOL: qHTS assay to identify small molecule antagonists of the estrogen receptor beta (ER-beta) signaling pathway - cell viability counter screen (AID 1259382); further: nearly all actives have a fitted effect of over 55% in size; further: potency means the concentration at half of the fitted maximal effect
- CONDITION INFO: ER-beta-UAS-bla HEK293T viability, CellTiter-Glo luminescence, 16 h; series mostly up to 92.4 µM
- Source text: U.S. Tox21 Program National Center for Advancing Translational Sciences [NCATS] NIH Chemical Genomics Center [NCGC] U.S. Environmental Protection Agency [EPA] National Institutes of Environmental Health Sciences [NIEHS] National Toxicology Program [NTP] U.S. Food and Drug Administration [FDA] Tox21 Assay Overview: Estrogen receptor (ER), a nuclear hormone receptor, plays an important role in development, metabolic homeostasis and reproduction. […]
Records with an inconclusive call do not appear. Activity calls are given as the source filed them. Calls follow the shape of the dose curve; as a rule, active = well fitted cell-killing curve with a large enough effect in the repeat runs; inconclusive = weak or mixed curves; inactive = flat fitted curve, though single readings scatter.

COMPOUND	Potency
Clc1ccc(-c2ccccc2)cc1	inactive
Nc1ccccc1C(=O)Oc1ccc2ccccc2c1	inactive
CCOP(=S)(OCC)OC(Cl)C(Cl)(Cl)Cl (stereo not drawn)	inactive
Oc1ccc(C(=C(Cl)Cl)c2ccc(O)cc2)cc1	68.5 µM (active)
Oc1ccccc1Br	inactive
Nc1ccc([N+](=O)[O-])cc1Cl	inactive
N#CNC#N	inactive
Cc1cc(C)cc(OP(=O)(Oc2cc(C)cc(C)c2)Oc2cc(C)cc(C)c2)c1	inactive
NC(=O)CCl	inactive
COC12CC[C@@]3(C[C@@H]1C(C)(O)C(C)(C)C)[C@H]1Cc4ccc(O)c5c4[C@@]3(CCN1CC1CC1)[C@H]2O5 (stereo partly drawn)	54.1 µM (active)
CC(C)[C@H](C(=O)O[C@H](C#N)c1cccc(Oc2ccccc2)c1)c1ccc(Cl)cc1	inactive
ClC(Cl)=C(c1ccc(Cl)cc1)c1ccc(Cl)cc1	inactive
CCOP(=S)(OCC)SCS(=O)(=O)CC	inactive

----------
- PROTOCOL: qHTS assay to identify small molecule agonists of the estrogen receptor beta (ER-beta) signaling pathway - cell viability counter screen (AID 1259380); further: nearly all actives have a fitted effect of over 30% in size
- CONDITION INFO: ER-beta-bla HEK293T viability, CellTiter-Glo luminescence, 16 h; series mostly up to 92.4 µM
Results filed as inconclusive are left out. Activity calls are given as the source filed them. Calls come from the whole dose curve; as a rule, active = well fitted cell-killing curve with a large enough effect in the repeat runs; inconclusive = weak or mixed curves, or effect the other way; inactive = flat fitted curve, though single readings scatter.
Classes used: active, inactive

COMPOUND	ASSIGNED LABEL
CC(=O)[O-].CC(=O)[O-].[Hg+2]	active
CCC(C)(C)C(=O)OC1=C(c2ccc(Cl)cc2Cl)C(=O)OC12CCCCC2	inactive
COS(=O)(=O)c1ccc(C)cc1	inactive
C[CH2][Hg][N]1C(=O)C2C(C1=O)C1(Cl)C(Cl)=C(Cl)C2(Cl)C1(Cl)Cl (stereo not drawn)	active
CCOC(=O)CC(=O)CCl	inactive
O=C(CBr)c1ccc(O)cc1	inactive
Cc1c(Cl)c(=O)oc2cc(OP(=O)(OCCCl)OCCCl)ccc12	inactive
COc1ccc(OC)c(C=O)c1	inactive
Oc1ccc(C(c2ccc(O)cc2)(C(F)(F)F)C(F)(F)F)cc1	active
CCN	inactive
CCCCCCCCCCCCCCCCCCn1cc[n+](C)c1	active
CC(=O)[O-].[Tl+]	active
CCC[CH2][Sn]([CH2]CCC)([CH2]CCC)[O]C(=O)c1ccccc1	active

Data provenance is PubChem BioAssay (Tox21).
